Numbers sourced from paper PMC9460261.

test: in vitro; conditions: human, plasma
EXPERIMENTAL_READOUT: fraction unbound
Numbers only.

Query string: Give me measured fraction unbound, please, for this molecule: `COc1ccc2cc1Oc1ccc(cc1)C[C@H]1c3c(cc4c(c3Oc3cc5c(cc3OC)CCN(C)[C@@H]5C2)OCO4)CCN1C`
Result string: 0.02

---

test: in vitro; settings: African green monkey, Selectivity Index (Vero cells), With Pgp pump inhibitor
Give measured selectivity ratio for each item. Keep answers brief.
Give bare numbers.

Worked cases, answers included:
Query string: Give me measured selectivity ratio, please, for this compound: COc1ccc2cc1Oc1ccc(cc1)C[C@H]1c3c(cc4c(c3Oc3cc5c(cc3OC)CCN(C)[C@@H]5C2)OCO4)CCN1C [Cepharanthine, cepharanthine]
Result string: 17.2

Query string: Give me measured selectivity ratio, please, for this compound: OC(c1cc(C(F)(F)F)nc2c(C(F)(F)F)cccc12)C1CCCCN1 (stereo not drawn) [Mefloquine, mefloquine]
Result string: 6.2

Next:
Query string: Give me measured selectivity ratio, please, for this compound: CC(C)/N=c1\cc2n(-c3ccc(Cl)cc3)c3ccccc3nc-2cc1Nc1ccc(Cl)cc1 [Clofazimine, clofazimine]
Result string: 208

---

assay: Plasma protein binding, hamster; settings: hamster, plasma
Counter-ions that a name gives are not always drawn.
Give measured fraction unbound for each item. Keep answers brief.
Give bare numbers.

Query string: Give me measured fraction unbound, please, for this molecule: CNCCC(Oc1ccc(C(F)(F)F)cc1)c1ccccc1 (centres unmarked)
Result string: 0.051

Query string: Give me measured fraction unbound, please, for this molecule: `COC(=O)N[C@H](C(=O)N[C@@H](Cc1ccccc1)[C@@H](O)CN(Cc1ccc(-c2ccccn2)cc1)NC(=O)[C@@H](NC(=O)OC)C(C)(C)C)C(C)(C)C`
Result string: 0.2

Query string: Give me measured fraction unbound, please, for this molecule: `Cc1c(O)cccc1C(=O)N[C@@H](CSc1ccccc1)[C@H](O)CN1C[C@H]2CCCC[C@H]2C[C@H]1C(=O)NC(C)(C)C`
Result string: 0.001

Query string: Give me measured fraction unbound, please, for this molecule: `CCN(CC)Cc1cc(Nc2ccnc3cc(Cl)ccc23)ccc1O`
Result string: 0.096

Here is another molecule to look at.
Query string: Give me measured fraction unbound, please, for this molecule: COCCCC/C(=N\OCCN)c1ccc(C(F)(F)F)cc1 [Fluvoxamine maleate, fluvoxamine maleate]
Result string: 0.281

---

assay: Population PK model from satellite PK studies in hamster; conditions: hamster of the study's median weight (80-131 g)
Give measured KA, absorption rate constant, population estimate (%RSE) for each item. Keep answers brief.

# batch: return KA, absorption rate constant, population estimate (%RSE) for each of the 3 compounds below
1. CC(C)OC(=O)[C@H](C)N[P@](=O)(OC[C@H]1O[C@@H](n2ccc(=O)[nH]c2=O)[C@](C)(F)[C@@H]1O)Oc1ccccc1 [Sofosbuvir, sofosbuvir]
2. COC(=O)N[C@H](C(=O)N1CCC[C@H]1c1nc(-c2ccc(-c3ccc(-c4c[nH]c([C@@H]5CCCN5C(=O)[C@@H](NC(=O)OC)C(C)C)n4)cc3)cc2)c[nH]1)C(C)C [Daclatasvir, daclatasvir]
3. Nc1c(Br)cc(Br)cc1CN[C@H]1CC[C@H](O)CC1 [Ambroxol, ambroxol]

Result string:
["0.622 (15.9) h-1", "0.415 (5.84) h-1", "4.76 (15.1%) h-1"]

---

assay: Plasma protein binding, human; settings: human, plasma
Where a name gives a salt, the structure may show the parent alone.
EXPERIMENTAL_READOUT: fraction unbound
Give bare numbers.

Query string: Give me measured fraction unbound, please, for this compound: Nc1c(Br)cc(Br)cc1CN[C@H]1CC[C@H](O)CC1 [Ambroxol, ambroxol]
Result string: 0.238

Query string: Give me measured fraction unbound, please, for this compound: COCCCC/C(=N\OCCN)c1ccc(C(F)(F)F)cc1 [Fluvoxamine maleate, fluvoxamine maleate]
Result string: 0.254

Query string: Give me measured fraction unbound, please, for this compound: CNCCC(Oc1ccc(C(F)(F)F)cc1)c1ccccc1 (centres unmarked) [Fluoxetine, fluoxetine]
Result string: 0.048

Query string: Give me measured fraction unbound, please, for this compound: Cc1c(O)cccc1C(=O)N[C@@H](CSc1ccccc1)[C@H](O)CN1C[C@H]2CCCC[C@H]2C[C@H]1C(=O)NC(C)(C)C [Nelfinavir, nelfinavir]
Result string: 0.001

Next:
Query string: Give me measured fraction unbound, please, for this compound: CCN(CC)Cc1cc(Nc2ccnc3cc(Cl)ccc23)ccc1O [Amodiaquine, amodiaquine]
Result string: 0.067

---

assay: Population PK model from satellite PK studies in hamster; conditions: hamster of the study's median weight (80-131 g)
Counter-ions that a name gives are not always drawn.
EXPERIMENTAL_READOUT: CL/F, elimination clearance, population estimate (%RSE)

Query string: Give me measured CL/F, elimination clearance, population estimate (%RSE), please, for this molecule: CNCCC(Oc1ccc(C(F)(F)F)cc1)c1ccccc1 (stereo not shown) [Fluoxetine, fluoxetine]
Result string: 447 (7.0) mL/h

Query string: Give me measured CL/F, elimination clearance, population estimate (%RSE), please, for this molecule: CCN(CC)Cc1cc(Nc2ccnc3cc(Cl)ccc23)ccc1O [Amodiaquine, amodiaquine]
Result string: 4390 (7.44%) mL/h

# batch: return CL/F, elimination clearance, population estimate (%RSE) for each of the 6 molecules below
1. C[C@@]1(F)[C@H](O)[C@@H](CO)O[C@H]1n1ccc(=O)[nH]c1=O [GS-331007]
2. Nc1c(Br)cc(Br)cc1CN[C@H]1CC[C@H](O)CC1 [Ambroxol, ambroxol]
3. NCCC(Oc1ccc(C(F)(F)F)cc1)c1ccccc1 (stereo not shown) [norfluoxetine]
4. C[C@@]1(F)[C@H](O)[C@@H](CO)O[C@H]1n1cnc2c(=O)[nH]c(N)nc21 [AT-273]
5. COCCCC/C(=N\OCCN)c1ccc(C(F)(F)F)cc1 [Fluvoxamine maleate, fluvoxamine maleate]
6. CC(C)OC(=O)[C@H](C)N[P@](=O)(OC[C@H]1O[C@@H](n2ccc(=O)[nH]c2=O)[C@](C)(F)[C@@H]1O)Oc1ccccc1 [Sofosbuvir, sofosbuvir]

Result string:
390 (17.4) mL/h
4860 (11.3%) mL/h
93.3 (6.3) mL/h
5.77 (33.1) mL/h
9500 (10.8) mL/h
122000 (14.4) mL/h

# batch: return CL/F, elimination clearance, population estimate (%RSE) for each of the 2 molecules below
1. COC(=O)N[C@H](C(=O)N1CCC[C@H]1c1nc(-c2ccc(-c3ccc(-c4c[nH]c([C@@H]5CCCN5C(=O)[C@@H](NC(=O)OC)C(C)C)n4)cc3)cc2)c[nH]1)C(C)C [Daclatasvir, daclatasvir]
2. Cc1c(O)cccc1C(=O)N[C@@H](CSc1ccccc1)[C@H](O)CN1C[C@H]2CCCC[C@H]2C[C@H]1C(=O)NC(C)(C)C [Nelfinavir, nelfinavir]

Result string:
1. 239 (19.6) mL/h
2. 613 (4.2) mL/h

---

assay: Binding to antiviral assay medium by Rapid Equilibrium Dialysis; conditions: bovine
Give measured fraction unbound for each item. Keep answers brief.

Worked cases, answers included:
Query string: Give me measured fraction unbound, please, for this molecule: CC(C)(C)[C@H](NC(=O)C(F)(F)F)C(=O)N1C[C@H]2[C@@H]([C@H]1C(=O)N[C@H](C#N)C[C@@H]1CCNC1=O)C2(C)C [Nirmatrelvir, nirmatrelvir]
Result string: 0.898

Query string: Give me measured fraction unbound, please, for this molecule: NC(=O)c1nc(F)c[nH]c1=O [Favipiravir, favipiravir]
Result string: 0.993

Query string: Give me measured fraction unbound, please, for this molecule: CC(C)OC(=O)[C@H](C)N[P@](=O)(OC[C@H]1O[C@@H](n2ccc(=O)[nH]c2=O)[C@](C)(F)[C@@H]1O)Oc1ccccc1 [Sofosbuvir, sofosbuvir]
Result string: 0.716

Next:
Query string: Give me measured fraction unbound, please, for this molecule: COC(=O)N[C@H](C(=O)N1CCC[C@H]1c1nc(-c2ccc(-c3ccc(-c4c[nH]c([C@@H]5CCCN5C(=O)[C@@H](NC(=O)OC)C(C)C)n4)cc3)cc2)c[nH]1)C(C)C [Daclatasvir, daclatasvir]
Result string: 0.209

---

Give measured selectivity ratio for each item. Keep answers brief.
assay: in vitro; details: African green monkey, Selectivity Index (Vero cells), Without Pgp pump inhibitor, T: toxicity observed

Worked cases, answers included:
Query string: Give me measured selectivity ratio, please, for this molecule: CC(C)C(=O)OC[C@H]1O[C@@H](n2ccc(NO)nc2=O)[C@H](O)[C@@H]1O [Molnupiravir, molnupiravir]
Result string: > 1.9

Query string: Give me measured selectivity ratio, please, for this molecule: COC(=O)N[C@H](C(=O)N1CCC[C@H]1c1nc(-c2ccc(-c3ccc(-c4c[nH]c([C@@H]5CCCN5C(=O)[C@@H](NC(=O)OC)C(C)C)n4)cc3)cc2)c[nH]1)C(C)C [Daclatasvir, daclatasvir]
Result string: > 2.5

Next:
Query string: Give me measured selectivity ratio, please, for this molecule: O=C(Nc1ncc([N+](=O)[O-])s1)c1ccccc1O [Tizoxanide, tizoxanide]
Result string: > 7
